tested on: NCI-H358; test: relative viability (nuclei count vs DMSO), 5 days (fraction); higher = more cells survive; details: first compound 0.8 µM
MEASURED PARAMETER: relative viability

COMPOUND: COc1nc(C)cnc1NS(=O)(=O)c1cccnc1-c1ccc(-c2nnco2)cc1 [Zibotentan] + COc1cc2c(Oc3ccc(NC(=O)C4(C(=O)Nc5ccc(F)cc5)CC4)cc3F)ccnc2cc1OCCCN1CCOCC1 [Foretinib] (partner 0.25 µM)
MEASURED PARAMETER: relative viability
RECORDED RESULT: 0.595
//
COMPOUND: COc1nc(C)cnc1NS(=O)(=O)c1cccnc1-c1ccc(-c2nnco2)cc1 [Zibotentan] + N=C(N)NC(=N)NCCc1ccccc1 [Phenformin] (partner 250 µM)
MEASURED PARAMETER: relative viability
RECORDED RESULT: 0.328
//
COMPOUND: O=c1cc(-c2cccc3c2Sc2ccccc2S3)oc(N2CCOCC2)c1 + C[C@@H](Oc1cc(-c2cnn(C3CCNCC3)c2)cnc1N)c1c(Cl)ccc(F)c1Cl [Crizotinib] (partner 1 µM)
MEASURED PARAMETER: relative viability
RECORDED RESULT: 0.657

---

system: NCI-H1355; assay: relative viability (nuclei count vs DMSO), 5 days (fraction); higher = more cells survive; settings: first compound 0.2 µM
Reported relative viability values are given for each entry in this list.

COMPOUND: COCC1(CO)C(=O)C2CCN1CC2 (centres undefined) [PRIMA-1MET] + CC(C)C[C@H](NC(=O)[C@H](Cc1ccccc1)NC(=O)c1cnccn1)B(O)O [Bortezomib] (partner 0.002 µM)
relative viability: 1.26
--
COMPOUND: COCC1(CO)C(=O)C2CCN1CC2 (centres undefined) [PRIMA-1MET] + CCNC(=O)c1noc(-c2cc(C(C)C)c(O)cc2O)c1-c1ccc(CN2CCOCC2)cc1 [Luminespib] (partner 0.01 µM)
relative viability: 0.859
--
COMPOUND: COCC1(CO)C(=O)C2CCN1CC2 (centres undefined) [PRIMA-1MET] + N=C(N)NC(=N)NCCc1ccccc1 [Phenformin] (partner 250 µM)
relative viability: 0.443
--
COMPOUND: COCC1(CO)C(=O)C2CCN1CC2 (centres undefined) [PRIMA-1MET] + CS(=O)(=O)N1CCN(Cc2cc3nc(-c4cccc5[nH]ncc45)nc(N4CCOCC4)c3s2)CC1 [Pictilisib] (partner 1 µM)
relative viability: 0.366

---

Reported relative viability values are given for each entry in this list.
tested on: 201T; assay: relative viability (nuclei count vs DMSO), 5 days (fraction); higher = more cells survive; conditions: first compound 0.3162 µM

MOLECULE: O=c1cc(N2CCOCC2)oc2c(-c3cccc4c3sc3ccccc34)cccc12 + N=C(N)NC(=N)NCCc1ccccc1 [Phenformin] (partner 250 µM)
relative viability: 0.441
--
MOLECULE: CCN(CC)CCCCNc1ncc2cc(-c3cc(OC)cc(OC)c3)c(NC(=O)NC(C)(C)C)nc2n1 + Cc1cc(Nc2cc(N3CCN(C)CC3)nc(Sc3ccc(NC(=O)C4CC4)cc3)n2)n[nH]1 [Tozasertib] (partner 0.1 µM)
relative viability: 1.02
--
MOLECULE: CCN(CC)CCCCNc1ncc2cc(-c3cc(OC)cc(OC)c3)c(NC(=O)NC(C)(C)C)nc2n1 + Nc1nc2[nH]cc(CCc3ccc(C(=O)N[C@@H](CCC(=O)O)C(=O)O)cc3)c2c(=O)[nH]1 [Pemetrexed] (partner 0.2 µM)
relative viability: 0.349

---

test system: EKVX; test: relative viability (nuclei count vs DMSO), 5 days (fraction); higher = more cells survive; conditions: first compound 0.253 µM

COMPOUND: COc1nc(C)cnc1NS(=O)(=O)c1cccnc1-c1ccc(-c2nnco2)cc1 [Zibotentan] + Cc1cc(Nc2cc(N3CCN(C)CC3)nc(Sc3ccc(NC(=O)C4CC4)cc3)n2)n[nH]1 [Tozasertib] (partner 0.1 µM)
ASSAYED TARGET: EKVX
relative viability: 0.348
--
COMPOUND: O=c1cc(-c2cccc3c2Sc2ccccc2S3)oc(N2CCOCC2)c1 + C[C@]1(O)C[C@@H](c2nc(-c3ccc4ccc(-c5ccccc5)nc4c3)c3c(N)nccn32)C1 [Linsitinib] (partner 1 µM)
ASSAYED TARGET: EKVX
relative viability: 1.13
--
COMPOUND: COc1nc(C)cnc1NS(=O)(=O)c1cccnc1-c1ccc(-c2nnco2)cc1 [Zibotentan] + Nc1nc2[nH]cc(CCc3ccc(C(=O)N[C@@H](CCC(=O)O)C(=O)O)cc3)c2c(=O)[nH]1 [Pemetrexed] (partner 0.2 µM)
ASSAYED TARGET: EKVX
relative viability: 0.384
--
COMPOUND: COc1nc(C)cnc1NS(=O)(=O)c1cccnc1-c1ccc(-c2nnco2)cc1 [Zibotentan] + C[C@@H](Oc1cc(-c2cnn(C3CCNCC3)c2)cnc1N)c1c(Cl)ccc(F)c1Cl [Crizotinib] (partner 1 µM)
ASSAYED TARGET: EKVX
relative viability: 0.733
--
COMPOUND: COc1nc(C)cnc1NS(=O)(=O)c1cccnc1-c1ccc(-c2nnco2)cc1 [Zibotentan] + CCNC(=O)c1noc(-c2cc(C(C)C)c(O)cc2O)c1-c1ccc(CN2CCOCC2)cc1 [Luminespib] (partner 0.01 µM)
ASSAYED TARGET: EKVX
relative viability: 0.88
--
COMPOUND: O=c1cc(-c2cccc3c2Sc2ccccc2S3)oc(N2CCOCC2)c1 + Nc1nc2[nH]cc(CCc3ccc(C(=O)N[C@@H](CCC(=O)O)C(=O)O)cc3)c2c(=O)[nH]1 [Pemetrexed] (partner 0.2 µM)
ASSAYED TARGET: EKVX
relative viability: 0.376
--
COMPOUND: COc1nc(C)cnc1NS(=O)(=O)c1cccnc1-c1ccc(-c2nnco2)cc1 [Zibotentan] + O=C(c1cc(Cc2n[nH]c(=O)c3ccccc23)ccc1F)N1CCN(C(=O)C2CC2)CC1 [Olaparib] (partner 8 µM)
ASSAYED TARGET: EKVX
relative viability: 0.733
--
COMPOUND: COc1nc(C)cnc1NS(=O)(=O)c1cccnc1-c1ccc(-c2nnco2)cc1 [Zibotentan] + O=C(CCCCCCC(=O)Nc1ccccc1)NO [Vorinostat] (partner 1 µM)
ASSAYED TARGET: EKVX
relative viability: 0.818
--
COMPOUND: O=c1cc(-c2cccc3c2Sc2ccccc2S3)oc(N2CCOCC2)c1 + CS(=O)(=O)N1CCN(Cc2cc3nc(-c4cccc5[nH]ncc45)nc(N4CCOCC4)c3s2)CC1 [Pictilisib] (partner 1 µM)
ASSAYED TARGET: EKVX
relative viability: 0.521
--
COMPOUND: O=c1cc(-c2cccc3c2Sc2ccccc2S3)oc(N2CCOCC2)c1 + O=C(c1cc(Cc2n[nH]c(=O)c3ccccc23)ccc1F)N1CCN(C(=O)C2CC2)CC1 [Olaparib] (partner 8 µM)
ASSAYED TARGET: EKVX
relative viability: 0.852
--
COMPOUND: COc1nc(C)cnc1NS(=O)(=O)c1cccnc1-c1ccc(-c2nnco2)cc1 [Zibotentan] + Cc1nc(Nc2ncc(C(=O)Nc3c(C)cccc3Cl)s2)cc(N2CCN(CCO)CC2)n1 [Dasatinib] (partner 0.075 µM)
ASSAYED TARGET: EKVX
relative viability: 0.529

---

Reported relative viability values are given for each entry in this list.
test system: NCI-H1734; test: relative viability (nuclei count vs DMSO), 5 days (fraction); higher = more cells survive; conditions: first compound 2.53 µM
MEASURED PARAMETER: relative viability

COMPOUND: COc1nc(C)cnc1NS(=O)(=O)c1cccnc1-c1ccc(-c2nnco2)cc1 [Zibotentan] + CS(=O)(=O)N1CCN(Cc2cc3nc(-c4cccc5[nH]ncc45)nc(N4CCOCC4)c3s2)CC1 [Pictilisib] (partner 1 µM)
MEASURED PARAMETER: relative viability
RECORDED RESULT: 0.43
--
COMPOUND: O=c1cc(-c2cccc3c2Sc2ccccc2S3)oc(N2CCOCC2)c1 + CC1(C)CCC(c2ccc(Cl)cc2)=C(CN2CCN(c3ccc(C(=O)NS(=O)(=O)c4ccc(N[C@H](CCN5CCOCC5)CSc5ccccc5)c(S(=O)(=O)C(F)(F)F)c4)cc3)CC2)C1 [Navitoclax] (partner 0.5 µM)
MEASURED PARAMETER: relative viability
RECORDED RESULT: 0.818
--
COMPOUND: O=c1cc(-c2cccc3c2Sc2ccccc2S3)oc(N2CCOCC2)c1 + C[C@]1(O)C[C@@H](c2nc(-c3ccc4ccc(-c5ccccc5)nc4c3)c3c(N)nccn32)C1 [Linsitinib] (partner 1 µM)
MEASURED PARAMETER: relative viability
RECORDED RESULT: 0.876
--
COMPOUND: COc1nc(C)cnc1NS(=O)(=O)c1cccnc1-c1ccc(-c2nnco2)cc1 [Zibotentan] + O=C(c1cc(Cc2n[nH]c(=O)c3ccccc23)ccc1F)N1CCN(C(=O)C2CC2)CC1 [Olaparib] (partner 8 µM)
MEASURED PARAMETER: relative viability
RECORDED RESULT: 0.699
--
COMPOUND: COc1nc(C)cnc1NS(=O)(=O)c1cccnc1-c1ccc(-c2nnco2)cc1 [Zibotentan] + COc1cccc2cc(-c3nc([C@H]4CC[C@H](C(=O)O)CC4)n4ncnc(N)c34)[nH]c12 [OSI-027] (partner 0.5 µM)
MEASURED PARAMETER: relative viability
RECORDED RESULT: 0.668
--
COMPOUND: COc1nc(C)cnc1NS(=O)(=O)c1cccnc1-c1ccc(-c2nnco2)cc1 [Zibotentan] + Nc1ncn([C@H]2C[C@H](O)[C@@H](CO)O2)c(=O)n1 [Decitabine] (partner 2 µM)
MEASURED PARAMETER: relative viability
RECORDED RESULT: 0.541
--
COMPOUND: COc1nc(C)cnc1NS(=O)(=O)c1cccnc1-c1ccc(-c2nnco2)cc1 [Zibotentan] + Cc1nc(Nc2ncc(C(=O)Nc3c(C)cccc3Cl)s2)cc(N2CCN(CCO)CC2)n1 [Dasatinib] (partner 0.075 µM)
MEASURED PARAMETER: relative viability
RECORDED RESULT: 0.564
--
COMPOUND: COc1nc(C)cnc1NS(=O)(=O)c1cccnc1-c1ccc(-c2nnco2)cc1 [Zibotentan] + CC(C)C[C@H](NC(=O)[C@H](Cc1ccccc1)NC(=O)c1cnccn1)B(O)O [Bortezomib] (partner 0.002 µM)
MEASURED PARAMETER: relative viability
RECORDED RESULT: 1
